We begin with a simple list: items and their reported pEC50.
tested on: L. donovani HU3 strain in mouse peritoneal macrophages; test: Assay for proliferation of Leishmania parasites in infected mouse peritoneal macrophages (SybrGreen staining, high-content imaging, 5 days); type: cell-based, Leishmania donovani; settings: Leishmania donovani, Peritoneal macrophage, L. donovani in mouse peritoneal macrophages, inhibition of proliferation; read-out: L. donovani Macrophage EC50
pEC50: −log10 of the molar value.

smiles-notation: Cc1nc(C)c(C(=O)Nc2ccc(F)c(-c3cn4cc(NC(=O)C5CCN(C(C)C)CC5)cnc4n3)c2)o1
tested-target: L. donovani HU3 strain in mouse peritoneal macrophages
pEC50: < 4.30

smiles-notation: CC(C)OC(=O)Nc1cnc2nc(-c3cc(NC(=O)N4CC(O)C4)ccc3F)cn2c1
tested-target: L. donovani HU3 strain in mouse peritoneal macrophages
pEC50: < 4.30

smiles-notation: CC(C)OC(=O)Nc1cnc2nc(-c3cc(NC(=O)c4ncc[nH]4)ccc3F)cn2c1
tested-target: L. donovani HU3 strain in mouse peritoneal macrophages
pEC50: < 4.54

smiles-notation: Cc1nc(C)c(C(=O)Nc2ccc(F)c(-c3cn4cc(NC(=O)c5ncco5)cnc4n3)c2)o1
tested-target: L. donovani HU3 strain in mouse peritoneal macrophages
pEC50: < 5.25
